Target: full-length human PKCι (Homo sapiens)
Construct: Recombinant, full-length human PKCι expressed in Sf21 insect cells is also commercially available
Sequence (P41743 1-596): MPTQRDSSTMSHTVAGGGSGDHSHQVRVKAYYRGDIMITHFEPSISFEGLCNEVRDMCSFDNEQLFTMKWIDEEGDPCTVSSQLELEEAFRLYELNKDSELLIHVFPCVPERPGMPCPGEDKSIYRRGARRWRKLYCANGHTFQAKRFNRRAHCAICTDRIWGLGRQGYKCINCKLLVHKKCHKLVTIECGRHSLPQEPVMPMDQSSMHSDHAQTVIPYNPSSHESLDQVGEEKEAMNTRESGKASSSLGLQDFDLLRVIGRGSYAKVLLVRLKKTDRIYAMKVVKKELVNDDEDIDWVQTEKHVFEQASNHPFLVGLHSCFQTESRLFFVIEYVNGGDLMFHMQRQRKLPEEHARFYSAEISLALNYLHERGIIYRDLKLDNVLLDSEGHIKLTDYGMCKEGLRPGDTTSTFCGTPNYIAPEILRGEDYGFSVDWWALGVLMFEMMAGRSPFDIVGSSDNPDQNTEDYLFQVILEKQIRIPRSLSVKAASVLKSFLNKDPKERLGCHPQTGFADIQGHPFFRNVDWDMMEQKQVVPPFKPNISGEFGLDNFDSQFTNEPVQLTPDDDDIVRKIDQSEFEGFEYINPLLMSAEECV
Assay: PKCι IC50 IMAP assay, full-length PKCι at 150 μM ATP
Settings: read-out: IC50 in IMAP assay against full length PKCi at 150 μM ATP
measured.attribute: IC50

Consider the reported IC50 for these compounds:
compound	result
COc1cncc2nc(-c3ccnc(Nc4ccccc4)c3)nc(N3CC[C@@H](O)[C@H](O)C3)c12 (racemic)	100 to 1000 nM
C[C@@H](Nc1cc(-c2nc(N3CCNCC3)c3c(C4CC4)cncc3n2)ccn1)c1nc(F)ccc1F	< 100 nM
Fc1cccc(F)c1Nc1cc(-c2nc(NCC3CCNCC3)c3c(C4CC4)cncc3n2)ccn1	< 100 nM
COc1cncc2nc(-c3ccnc(NC(=O)Cc4cccc(Cl)c4)c3)nc(N3CCNCC3)c12	< 100 nM
CC(C)(C)c1cc2c(-c3nc(N4CC[C@@H](O)C4)c4c(C5CC5)cncc4n3)ccnc2[nH]1	< 100 nM
c1cc(-c2nc(N3CCNCC3)c3c(C4CC4)cncc3n2)ccn1	< 100 nM
CN(C)CCCCNc1nc(-c2ccnc(Nc3c(F)cccc3F)c2)nc2cncc(C3CC3)c12	100 to 1000 nM
Cc1ccnc(Nc2cc(-c3nc(N4CCNCC4)c4c(C5CC5)cncc4n3)ccn2)c1	< 100 nM

Inquiry: GET /values?readout=IC50&item= COc1cncc2nc(-c3ccncc3)nc(N3CCNC(C(F)(F)F)C3)c12 (stereo not shown)
Reply text: 1000 to 10000 nM

Inquiry: GET /values?readout=IC50&item= COc1cncc2nc(-c3ccncc3)nc(NC[C@@H](N)[C@H](F)c3ccccc3)c12
Reply text: < 100 nM

Inquiry: GET /values?readout=IC50&item= CNC(=O)C1CCN(c2nc(-c3ccnc(Nc4c(F)cccc4F)c3)nc3cncc(C4CC4)c23)C1 (stereo not shown)
Reply text: 100 to 1000 nM

----------
Biological target: full-length human PKCι (Homo sapiens, UniProt P41743)
Construct: Recombinant, full-length human PKCι expressed in Sf21 insect cells is also commercially available
Assay: PKCι IC50 IMAP assay, full-length PKCι at 150 μM ATP
Settings: read-out: IC50 in IMAP assay against full length PKCi at 150 μM ATP
Measured IC50 values are reported for all entries that follow.

Consider the reported IC50 for these compounds:
given.smiles	target.system	result
COc1cccc(Nc2cc(-c3nc(N4CC[C@H](CO)C4)c4c(OC)cncc4n3)ccn2)n1	full-length human PKCι (Homo sapiens, UniProt P41743)	1000 to 10000 nM
COc1cncc2nc(-c3ccnc(Nc4ccccn4)c3)nc(N3CCNCC3)c12	full-length human PKCι (Homo sapiens, UniProt P41743)	< 100 nM
COc1ccc(F)c(Nc2cc(-c3nc(N4CCNCC4)c4c(C5CC5)cncc4n3)ccn2)n1	full-length human PKCι (Homo sapiens, UniProt P41743)	< 100 nM

Inquiry: GET /values?readout=IC50&item= C[C@@H](Nc1cc(-c2nc(N3CCNCC3)c3c(C4CC4)cncc3n2)ccn1)C1CC1
Reply text: < 100 nM

Inquiry: GET /values?readout=IC50&item= Cc1nc(Nc2cc(-c3nc(N4CCNCC4)c4c(C5CC5)cncc4n3)ccn2)oc1C
Reply text: < 100 nM

Inquiry: GET /values?readout=IC50&item= COc1cncc2nc(-c3ccnc(NC4CCCCC4)c3)nc(N3CCNCC3)c12
Reply text: < 100 nM

Inquiry: GET /values?readout=IC50&item= CC(C)(c1cc2c(-c3nc(N4CCNCC4)c4c(C5CC5)cncc4n3)ccnc2[nH]1)C(F)(F)F
Reply text: < 100 nM

Inquiry: GET /values?readout=IC50&item= c1cc(-c2nc(N3CCNCC3)c3c(C4CC4)cncc3n2)cc(Nc2ccc(N3CCOCC3)nc2)n1
Reply text: < 100 nM

----------
Measured pIC50 values are reported for all entries that follow.
Molecular target: full-length human PKCι (Homo sapiens)
Construct: Recombinant, full-length human PKCι expressed in Sf21 insect cells is also commercially available
Test: PKCι IC50 IMAP assay, full-length PKCι at 150 μM ATP
Details: read-out: IC50 in IMAP assay against full length PKCi at 150 μM ATP
pIC50: −log10 of the molar value.

Consider the reported pIC50 for these compounds:
compound	target.system	pIC50
OC1CCN(c2nc(-c3ccnc4[nH]c(C(F)(F)F)cc34)nc3cncc(C4CC4)c23)CC1 [Example 1239]	full-length human PKCι (Homo sapiens)	> 7.00
COc1cncc2nc(-c3ccnc(Nc4nc(C)c(C)o4)c3)nc(N3CCNCC3)c12 [Example 203]	full-length human PKCι (Homo sapiens)	> 7.00
COc1cc(Nc2cc(-c3nc(N4CCNCC4)c4c(C5CC5)cncc4n3)ccn2)ccc1C [Example 609]	full-length human PKCι (Homo sapiens)	> 7.00
Fc1cc(F)c(F)c(Nc2cc(-c3nc(NC4CCNCC4)c4c(C5CC5)cncc4n3)ccn2)n1 [Example 2062]	full-length human PKCι (Homo sapiens)	> 7.00
CN(C)c1ncc(Cl)c2c(N3CCNCC3)nc(-c3ccncc3)nc12 [Example 142]	full-length human PKCι (Homo sapiens)	5.00 to 6.00

Inquiry: GET /values?readout=pIC50&item= N[C@H](CNc1nc(-c2ccncc2)nc2c(-c3ccccc3O)nccc12)Cc1ccccc1 [Example 105]
Reply text: > 7.00

Inquiry: GET /values?readout=pIC50&item= N#Cc1ccnc2c1ccn2-c1cc(-c2nc(N[C@@H]3CCNC3)c3ccncc3n2)ccn1 [Example 328]
Reply text: 5.00 to 6.00

----------
Target: full-length human PKCι (Homo sapiens, UniProt P41743)
Construct: Recombinant, full-length human PKCι expressed in Sf21 insect cells is also commercially available
Test: PKCι IC50 IMAP assay, full-length PKCι at 150 μM ATP
Settings: read-out: IC50 in IMAP assay against full length PKCi at 150 μM ATP
measured.attribute: IC50

Consider the reported IC50 for these compounds:
compound	target.system	IC50
COc1cncc2nc(-c3ccnc(Nc4cccc(C(F)(F)F)c4)c3)nc(N3CCNCC3)c12 [Example 446]	full-length human PKCι (Homo sapiens, UniProt P41743)	0.1 to 1 µM
COc1ccccc1Nc1cc(-c2nc(N3CCNCC3)c3c(C4CC4)cncc3n2)ccn1 [Example 515]	full-length human PKCι (Homo sapiens, UniProt P41743)	< 0.1 µM
Fc1cccnc1Nc1cc(-c2nc(N3CCNCC3)c3c(C4CCC4)cncc3n2)ccn1 [Example 784]	full-length human PKCι (Homo sapiens, UniProt P41743)	< 0.1 µM

Inquiry: GET /values?readout=IC50&item= COc1cncc2nc(-c3ccnc(Nc4ccccc4)c3)nc(N3CC(CO)C3)c12 [Example 433]
Reply text: 1 to 10 µM

Inquiry: GET /values?readout=IC50&item= COc1cncc2nc(-c3ccnc(Nc4cccc(F)n4)c3)nc(N3CCC(O)CC3)c12 [Example 468]
Reply text: 0.1 to 1 µM

Inquiry: GET /values?readout=IC50&item= COc1cncc2nc(-c3ccnc(Nc4cc(C#N)ccn4)c3)nc(N3CCC(O)CC3)c12 [Example 402]
Reply text: 0.1 to 1 µM

Inquiry: GET /values?readout=IC50&item= COc1cncc2nc(-c3ccnc(Nc4ccccc4)c3)nc(N3CCC(O)C(O)C3)c12 (single isomer, unassigned) [Example 456]
Reply text: 0.1 to 1 µM

----------
Target: full-length human PKCι (Homo sapiens, UniProt P41743)
Construct: Recombinant, full-length human PKCι expressed in Sf21 insect cells is also commercially available
Assay: PKCι IC50 IMAP assay, full-length PKCι at 150 μM ATP
Settings: read-out: IC50 in IMAP assay against full length PKCi at 150 μM ATP
pIC50: −log10 of the molar value.
measured.attribute: pIC50

Consider the reported pIC50 for these compounds:
compound	target.system	pIC50
Fc1ccc2c([nH]c3nccc(-c4nc(N5CCNCC5)c5c(C6CC6)cncc5n4)c32)c1F [Example 2036]	full-length human PKCι (Homo sapiens, UniProt P41743)	> 7.00
FC(F)(F)c1ccc(-n2cc(Nc3cc(-c4nc(N5CCNCC5)c5c(C6CC6)cncc5n4)ccn3)c(Cl)n2)nc1 [Example 2154]	full-length human PKCι (Homo sapiens, UniProt P41743)	> 7.00
O=C(Nc1cc(-c2nc(N3CCNCC3)c3c(C4CC4)cncc3n2)ccn1)C(F)(F)c1ccccc1 [Example 2126]	full-length human PKCι (Homo sapiens, UniProt P41743)	> 7.00

Inquiry: GET /values?readout=pIC50&item= FC(F)(F)C(Nc1cc(-c2nc(N3CCNCC3)c3c(C4CC4)cncc3n2)ccn1)c1ccccc1 (stereo not shown) [Example 706]
Reply text: 6.00 to 7.00

Inquiry: GET /values?readout=pIC50&item= COc1cncc2nc(-c3ccnc(NC(=O)C4CC4)c3)nc(N3CCNCC3)c12 [Example 216]
Reply text: > 7.00

Inquiry: GET /values?readout=pIC50&item= c1cc2c(N[C@@H]3CCNC3)nc(-c3ccnc(Nc4ccc(Cn5ccnc5)cc4)c3)nc2cn1 [Example 322]
Reply text: 6.00 to 7.00

Inquiry: GET /values?readout=pIC50&item= Cc1cc2c(-c3nc(N4CCNCC4)c4c(C5CCC5)cncc4n3)ccnc2[nH]1 [Example 2112]
Reply text: > 7.00

Inquiry: GET /values?readout=pIC50&item= CC(C)(C)c1cc2c(-c3nc(N4CCNCC4)c4c(C5CC5)cnc(F)c4n3)ccnc2[nH]1 [Example 2119]
Reply text: > 7.00

Inquiry: GET /values?readout=pIC50&item= COc1cncc2nc(-c3ccnc(Nc4ccc(N5CCOCC5)cc4)c3)nc(N[C@@H]3CCNC3)c12 [Example 229]
Reply text: > 7.00

Inquiry: GET /values?readout=pIC50&item= COc1ccc(F)c(Nc2cc(-c3nc(N4CCNCC4)c4c(C5CC5)cncc4n3)ccn2)c1 [Example 580]
Reply text: > 7.00

Inquiry: GET /values?readout=pIC50&item= FC(F)(F)c1cc2c(-c3nc(N4CCNCC4)c4c(C5CC5)cncc4n3)ccnc2[nH]1 [Example 1212]
Reply text: > 7.00
